Where do the numbers come from? From the supplement of paper PMC4466140.

SPOT peptide array binding signal intensity for assorted binders
target: CaAbp1-D1; test: SPOT peptide array binding signal intensity (averaged, normalized) (arbitrary units (background-subtracted, floor 0; scale differs between SH3 domains)); higher = stronger binding of the SH3 domain to the peptide
measured attribute: SPOT peptide array binding signal intensity

INSERT INTO assay_data (binder, qualifier_symbol, number) VALUES
  ('SAPDIPPRSPNRNAH', '≤', 0),
  ('RTIRKLPLMSLSEYF', '=', 285),
  ('LRWRHKFFLPAIAAI', '=', 312),
  ('VPVAPPPPPASLGQS', '=', 2),
  ('KFIPSRPAPKPPSSA', '=', 1850),
  ('FVLRYYILIPHEQWD', '=', 30.5),
  ('PIVPSSPAPPLPLSG', '≤', 0),
  ('SPLGAPPPPPHKDHL', '≤', 0),
  ('NMLSRPRLAKLPSIR', '=', 822),
  ('NSMRPPLLIPAATTK', '=', 63.5),
  ('SGVRLPAPPPPPRRG', '=', 1510),
  ('KLSRGRYGLPLSSRP', '=', 380),
  ('SSSSSPPPLPTRRDH', '=', 7.5),
  ('RRGPAPPPPPRASRP', '=', 1290),
  ('ALFRLSFFFPLDPAY', '=', 494),
  ('LLRRTIPKRPFYHVL', '=', 604),
  ('NNFYRPLLRSVLVLL', '≤', 0);
